test system: Shionogi mouse mammary carcinoma cells; assay: Antiandrogenic activity: inhibition of DHT-induced proliferation of Shionogi cells; assay type: cell-based; conditions: Table 4′; DHT-induced proliferation, E^−7
outcomeMeasure: Antiandrogenic Activity Shionogi, DHT E^−7 (%)

>>> print(df.to_string())
                                    molecule  unitofmeasure  numericvalue
 0  CC1CCC2(CCC3C4CCc5cc(O)c([N+](=O)[O-])cc5C4CCC32C)OC1=O (stereo not shown) [EM-1131]              %           −15
 1  CN(C)C(=O)c1ccc2c(c1)CCC1C2CCC2(C)C1CCC21CCC(C)(C)C(=O)O1 (stereo not shown) [EM-1403]              %             0
 2  CC12CCC3c4ccc(O)cc4CCC3C1CCC21CC=CC(=O)O1 (stereo not shown) [PB-132-140]              %            16
 3  COc1ccc2c(c1)C(=O)CC1C2CC[C@@]2(C)C1CC[C@@]21CCC(C)(C)C(=O)O1 (stereo partly shown) [EM-1394]              %             0
 4  CCC1(CC)CC[C@@]2(CC[C@H]3[C@@H]4CCc5cc(O)ccc5[C@H]4CC[C@@]32C)OC1=O [EM-1416]              %            26
 5  COCCOc1cc2c(cc1F)C1CCC3(C)C(CCC34CCC(C)(C)C(=O)O4)C1CC2 (stereo not shown) [EM-1393-CS]              %            27
 6  COc1ccc2c(c1)CCC1C2CCC2(C)C1CCC21CCC(C)(C)C(=O)O1 (stereo not shown) [EM-1370]              %             0
 7  CCC1(CC)CC[C@@]2(CC[C@H]3[C@@H]4CCc5cc(OC)ccc5[C@H]4CC[C@@]32C)OC1=O [EM-1419]              %             2
 8  COc1ccc2c(c1)C(=O)CC1C3CCC4(CCC(C)(C)C(=O)O4)C3(C)CCC21O (stereo not shown) [EM-1386]              %             0
 9  CN(C)CCOc1ccc2c(c1)CCC1C2CCC2(C)C1CCC21CCC(C)(C)C(=O)O1 (stereo not shown) [EM-1389-CS]              %           −94
10  CC1(C)CCC2(CCC3C4CCc5cc(OCCN6CCCCC6)ccc5C4CCC32C)OC1=O (stereo not shown) [EM-1390-CS]              %           −36
11  CC1(C)CC[C@@]2(CCC3C4CCc5cc6oncc6cc5C4CC[C@@]32C)OC1=O (stereo partly shown) [EM-1407-CS]              %           −16
12  COCCOc1cc2c(cc1Cl)C1CCC3(C)C(CCC34CCC(C)(C)C(=O)O4)C1CC2 (stereo not shown) [EM-1371-CS]              %             0
13  CC1CCC2(CCC3C4CCc5ccccc5C4CCC32C)OC1=O (stereo not shown) [EM-1025]              %           −14
14  CC1CCC2(CCC3C4CCc5cc(O)c([N+](=O)[O-])cc5C4CCC32C)OC1=O (stereo not shown) [EM-1126]              %             0
15  CC1(C)CC[C@@]2(CCC3C4CCc5cc(F)ccc5C4CC[C@@]32C)OC1=O (stereo partly shown) [EM-1157-CS]              %             0
16  COCCOc1ccc2c(c1)C(=O)CC1C2CCC2(C)C1CCC21CCC(C)(C)C(=O)O1 (stereo not shown) [EM-1408-CS]              %           −19
17  CC1(C)CCC2(CCC3C4CCc5cc(OS(C)(=O)=O)ccc5C4CCC32C)OC1=O (stereo not shown) [EM-1365-CS]              %           −17
18  COc1cc2c(cc1C)C1CCC3(C)C(CCC34CCC(C)(C)C(=O)O4)C1CC2 (stereo not shown) [EM-1412-CS]              %             0
19  CC1CC(=O)OC2(CCC3C4CCc5cc(O)ccc5C4CCC32C)C1 (stereo not shown) [PB-132-142]              %             0
20  C=CCC1CCC2(CCC3C4CCc5cc(O)ccc5C4CCC32C)OC1=O (stereo not shown) [PB-132-152]              %            14
21  CC1(C)CCC2(CCC3C4CCc5cc(C(=O)OCc6ccccc6)ccc5C4CCC32C)OC1=O (stereo not shown) [EM-1398]              %             0
